melting point listing for selected compounds.

{"columns": ["compound", "melting point [°C]"],
 "data": [
  ["CN1C(=O)CC(c2ccccc2)C1C(O)c1ccc2c(c1)OCO2 (centres unmarked) [Example 108]", 211],
  ["Cc1ccc(-c2ccc(C(O)C3C(c4ccccc4)CC(=O)N3C)s2)nc1 (centres unmarked) [Example 27]", 173],
  ["COc1ccc(C2CC(=O)N(C)C2C(O)c2ccc(-c3ccccc3)s2)cc1 (centres unmarked) [Example 82]", 215],
  ["CN1C(=O)C[C@H](c2ccccc2)[C@@H]1[C@H](O)c1cccc(-c2cccc([N+](=O)[O-])c2)c1 (racemic) [Example 106]", 183],
  ["CC(=O)Nc1cccc(-c2cccc(C(O)C3C(c4ccccc4)CC(=O)N3C)c2)c1 (centres unmarked) [Example 102]", 150],
  ["CN1C(=O)CC(c2ccccc2)C1C(O)c1ccc(-c2cccc(N)c2)o1 (centres unmarked) [Example 119]", 98]
]}

----------
melting point listing for selected compounds.
result-type: melting point

{"columns": ["compound", "assay-value"],
 "data": [
  ["CN1C(=O)C[C@H](c2ccccc2)[C@@H]1[C@H](O)c1cccc(-c2ccccc2)c1 (racemic) [Example 98]", "173 to 176 °C"],
  ["COc1ccc2oc(C(O)C3C(c4ccccc4)CC(=O)N3C)cc2c1 (centres unmarked) [Example 113]", "180 to 182 °C"],
  ["CN1C(=O)CC(c2ccccc2)C1C(O)c1ccc(-c2c(F)cc(F)cc2F)s1 (centres unmarked) [Example 75]", "95 °C"],
  ["CN1C(=O)C[C@H](c2ccccc2)[C@@H]1[C@H](O)c1ccc(-c2ccc[n+]([O-])c2)s1 [Example 26]", "138 to 140 °C"],
  ["CC(=O)O[C@H](c1ccc(-c2ccc(F)cc2)s1)[C@H]1[C@@H](c2ccccc2)CC(=O)N1C (relative stereo) [Example 13]", "75 °C"],
  ["CN1C(=O)CC(c2ccccc2)C1C(O)c1ccc(Cl)c(Cl)c1 (centres unmarked) [Example 99]", "193 to 195 °C"],
  ["CN1C(=O)CC(c2ccccc2F)C1C(O)c1ccc(-c2ccc(F)cc2)s1 (centres unmarked) [Example 84]", "178 °C"],
  ["CN1C(=O)CC(c2ccccc2)C1C(O)c1ccc(-c2ccccc2)o1 (centres unmarked) [Example 117]", "184 °C"],
  ["CN1C(=O)CC(c2ccccc2)C1C(O)c1ccc(-c2cccc(F)c2)o1 (centres unmarked) [Example 122]", "180 °C"],
  ["CCO[C@H](c1cccs1)[C@H]1[C@@H](c2ccccc2)CC(=O)N1C [Example 139]", "142 to 144 °C"],
  ["CN1C(=O)CC(c2ccccc2)C1C(O)c1ccc(C(=O)c2ccc(F)cc2)s1 (centres unmarked) [Example 65]", "229 to 232 °C (dec.)"],
  ["CN1C(=O)CC(c2ccccc2)C1C(O)c1ccc(-c2ccc(-c3ccccc3)c(F)c2)s1 (centres unmarked) [Example 47]", "170 °C"],
  ["CO[C@H](c1cccc(-c2ccccc2)c1)[C@H]1[C@@H](c2ccccc2)CC(=O)N1C [Example 143]", "136 °C"],
  ["Cc1c(C(O)C2C(c3ccccc3)CC(=O)N2C)sc2ccc(F)cc12 (racemic) [Example 53]", "175 to 177 °C"],
  ["C#Cc1ccc([C@@H](O)[C@H]2[C@@H](c3ccccc3)CC(=O)N2C)s1 (relative stereo) [Example 23]", "187 °C"],
  ["CN1C(=O)CC(c2ccccc2)C1C(O)c1cc2ccccc2o1 (centres unmarked) [Example 112]", "120 to 122 °C"],
  ["CN1C(=O)CC(c2ccccc2)C1C(O)c1ccc(-c2ccc(F)cc2)cc1 (centres unmarked) [Example 111]", "117 °C"]
]}
